Measured log10(IC50) of individual entries
target-system: STAT3 (Homo sapiens)
Construct: plasmid pSTAT3-TA-luc), which contains a stably operating STAT3 promoter; endogenous in cells
Sequence (P40763 whole entry): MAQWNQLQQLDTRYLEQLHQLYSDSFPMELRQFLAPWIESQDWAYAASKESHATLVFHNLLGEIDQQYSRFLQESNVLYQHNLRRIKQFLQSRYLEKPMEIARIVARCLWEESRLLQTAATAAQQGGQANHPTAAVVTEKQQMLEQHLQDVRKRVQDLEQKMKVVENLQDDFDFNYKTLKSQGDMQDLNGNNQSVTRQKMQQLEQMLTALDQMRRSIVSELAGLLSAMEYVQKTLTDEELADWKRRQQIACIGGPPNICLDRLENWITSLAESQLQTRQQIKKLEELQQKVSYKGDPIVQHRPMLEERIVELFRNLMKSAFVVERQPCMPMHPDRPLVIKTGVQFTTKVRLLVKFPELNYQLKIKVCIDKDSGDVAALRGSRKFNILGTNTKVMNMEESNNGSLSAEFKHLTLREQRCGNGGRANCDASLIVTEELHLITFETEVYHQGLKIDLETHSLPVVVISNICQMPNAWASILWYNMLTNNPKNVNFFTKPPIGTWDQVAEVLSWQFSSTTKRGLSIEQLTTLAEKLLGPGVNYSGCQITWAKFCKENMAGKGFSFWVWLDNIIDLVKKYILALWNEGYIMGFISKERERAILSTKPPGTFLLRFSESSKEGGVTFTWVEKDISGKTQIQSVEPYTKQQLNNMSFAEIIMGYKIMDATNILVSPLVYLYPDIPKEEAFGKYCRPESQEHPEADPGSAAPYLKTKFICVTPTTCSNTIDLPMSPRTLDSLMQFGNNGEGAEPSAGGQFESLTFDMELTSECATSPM
method-summary: STAT3 reporter gene assay (luciferase), LNCaP stable cell line (pSTAT3-TA-luc), IL-6 stimulation
Format: cell-based
Hey, these are logged values: log10 of IC50, µM being the unit before logging.

CS(=O)(=O)Nc1ccc2cc(C(=O)Nc3cc(C#N)cc(S(=O)(=O)c4cccc(OC(F)(F)F)c4)c3)[nH]c2c1	0.45

## Input Quick check: log10(IC50) of CCOc1cc(OC(F)(F)F)cc(C(C)(C)c2cc(Br)cc(NC(=O)c3cc4cc(NS(C)(=O)=O)ccc4s3)c2)c1 ?
## Output -2.15

## Input # iterate: COc1cc(NC(=O)c2cc3ccc(NS(C)(=O)=O)cc3[nH]2)cc(C(C)(C)c2cccc(OC(F)(F)F)c2)c1
## Output -0.47

## Input # iterate: O=C(Nc1cccc(-c2ccccc2C(F)(F)F)c1)C1Cc2ccc([N+](=O)[O-])cc2N1 (stereo not drawn)
## Output 0.04

## Input # iterate: CC(C)Oc1cc(OC(F)(F)F)cc(C(C)(C)c2cc(F)cc(NC(=O)c3cc4cc(NS(C)(=O)=O)ccc4s3)c2)c1
## Output -1.62

## Input # iterate: COc1cc2cc(C(=O)Nc3cccc(C(C)(C)c4ccc(F)cc4)c3)[nH]c2cc1NS(C)(=O)=O
## Output -0.66

## Input # iterate: Nc1ccc2cc(C(=O)Nc3cccc(-c4ccc(F)cc4F)c3)[nH]c2c1
## Output 0.77

## Input # iterate: CC(C)(c1cc(Cl)cc(NC(=O)c2cc3cc(NS(C)(=O)=O)c(Cl)cc3s2)c1)c1ccc(Cl)s1
## Output -2.15

## Input # iterate: CC(C)Oc1cc(OC(F)(F)F)cc(C(C)(C)c2cc(Cl)cc(NC(=O)c3cc4cc(NS(=O)(=O)CCN(C)O)ccc4s3)c2)c1
## Output -0.85

## Input # iterate: CC(C)(c1ccc(F)cc1)c1cccc(NC(=O)c2cc3cc(NS(C)(=O)=O)ccc3s2)c1
## Output -1.23

## Input # iterate: CS(=O)(=O)Nc1ccc2cc(C(=O)Nc3cccc(S(=O)(=O)c4ccc5sccc5c4)c3)[nH]c2c1
## Output 0.46

## Input # iterate: Cn1cccc1-c1cc(NC(=O)c2cc3ccc(NS(C)(=O)=O)cc3[nH]2)cc(-c2ccc(F)cc2F)c1
## Output -0.12

## Input # iterate: CS(=O)(=O)Nc1ccc2cc(C(=O)Nc3cccc(-c4ccc(F)cc4F)c3)[nH]c2c1
## Output -0.42

## Input # iterate: COc1cc(OC(F)(F)F)cc(C(C)c2cccc(NC(=O)c3cc4ccc(NS(C)(=O)=O)cc4[nH]3)c2)c1 (stereo not drawn)
## Output -0.37

====

target-system: STAT3 (Homo sapiens)
Construct: plasmid pSTAT3-TA-luc), which contains a stably operating STAT3 promoter; endogenous in cells
method-summary: STAT3 reporter gene assay (luciferase), LNCaP stable cell line (pSTAT3-TA-luc), IL-6 stimulation
Assay type: cell-based
Lab note: compare IC50 with 2 µM, writing Fulfilled if less and Not fulfilled if equal or more.

For orientation, consider the following solved cases.
CC(C)Oc1cc(Br)cc(C(C)(C)c2cc(Cl)cc(NC(=O)c3cc4cc(NS(C)(=O)=O)ccc4s3)c2)c1 [Example 91]	Fulfilled
CC(C)Oc1cc(OC(F)(F)F)cc(C(C)(C)c2cc(Cl)cc(NC(=O)c3cc4cc(NS(C)(=O)=O)ccc4s3)c2)c1 [Example 68]	Fulfilled
CS(=O)(=O)Nc1ccc2cc(C(=O)Nc3cc(-c4ccc(C(F)(F)F)nc4)cc(-c4ccc(F)cc4F)c3)[nH]c2c1 [Example 358]	Fulfilled
CC(C)Oc1cc(OC(F)(F)F)cc(C(C)(C)c2cc(Cl)cc(NC(=O)c3cc4cc(N5CCCCS5(=O)=O)ccc4s3)c2)c1 [Example 211]	Fulfilled
CC(C)(c1ccc(Cl)cc1)c1cc(Cl)cc(NC(=O)c2cc3cc(Cl)c(NS(C)(=O)=O)cc3s2)c1 [Example 184]	Fulfilled
CS(=O)(=O)Nc1ccc2sc(C(=O)Nc3cc(Cl)cc(Oc4cccc(C(F)(F)F)c4)c3)cc2c1 [Example 455]	Fulfilled
CC(C)Oc1cc(OC(F)(F)F)cc(C(C)(C)c2cc(Cl)cc(NC(=O)c3cc4cc(NS(=O)(=O)c5ccn(C)n5)ccc4s3)c2)c1 [Example 200]	Fulfilled
COc1cc(NC(=O)c2sc3cc(NS(C)(=O)=O)ccc3c2C)cc(-c2ccc(F)cc2F)c1 [Example 316]	Not fulfilled
CC(C)Oc1cc(N2CC[N+](C)([O-])CC2)cc(C(C)(C)c2cc(Cl)cc(NC(=O)c3cc4cc(NS(C)(=O)=O)ccc4s3)c2)c1 [Example 144]	Not fulfilled
CS(=O)(=O)Nc1ccc2sc(C(=O)Nc3cc(Cl)cc(Oc4ccc(C#N)cc4)c3)cc2c1 [Example 451]	Fulfilled

## Input Does Cc1c(C(=O)Nc2cccc(C(C)(C)c3ccc(F)cc3)c2)sc2ccc(NS(C)(=O)=O)cc12 [Example 52] have IC50 strictly under 2 µM?
## Output Fulfilled

## Input # iterate: CS(=O)(=O)Nc1ccc2cc(C(=O)Nc3cccc(S(=O)(=O)c4cccc(CC#N)c4)c3)[nH]c2c1 [Example 412]
## Output Not fulfilled

## Input # iterate: CC(C)(c1cc(Br)cc(NC(=O)c2cc3cc(NS(C)(=O)=O)ccc3s2)c1)c1cccc(OCC(N)=O)c1 [Example 43]
## Output Not fulfilled

## Input # iterate: COc1cc(OC(F)(F)F)cc(C(C)(C)c2cc(Br)cc(NC(=O)c3cc4cc(NS(C)(=O)=O)ncc4[nH]3)c2)c1 [Example 99, 2,2,2-trifluoroacetate]
## Output Fulfilled
